From: the RepoRT retention time repository

experiment: RP, Thermo Scientific Hypersil GOLD, 1.9 µm, 40 °C, 0.4 mL/min; A: water + 0.1% formic acid, pH 3; B: acetonitrile + 0.1% formic acid, pH 3; gradient (min/%B) 0/0 1/0 11/100 13/100 14/0 16/0; settings: stereoisomer not certain
Counter-ions that a name gives are not always drawn.
Would you kindly list LC retention time for each of these compounds?
# output: bare number, implied unit min

Noted for O=c1c(O)c(-c2ccc(O)cc2O)oc2cc(O)cc(O)c12 [Morin hydrate] : its LC retention time reads 6.29

Noted for CCCCC(O)C(=O)O (stereo not given) [2-hydroxycaproic acid] : its LC retention time reads 5.43

Noted for Cc1cc2nc3[nH]c(=O)[nH]c(=O)c3nc2cc1C [LUMICHROME] : its LC retention time reads 6.03

Noted for CC1OC(n2cnc3c(N)ncnc32)C(O)C1O (stereo not given) [5'-DEOXYADENOSINE] : its LC retention time reads 3.66

Noted for O=C(O)c1cccnc1 [Nicotinic acid] : its LC retention time reads 0.81

Noted for CC(C)C(O)(CC(=O)O)C(=O)O (stereo not given) [2-Isopropylmalic acid] : its LC retention time reads 4.79

Noted for CC(=O)C1(O)CCC2C3CCC4=CC(=O)CCC4(C)C3CCC21C (stereo not given) [17a-Hydroxyprogesterone] : its LC retention time reads 8.44

Noted for C[N+](C)(C)[O-] [trimethylamine N-oxide] : its LC retention time reads 0.64

Noted for CCOC(N)=O [Urethane] : its LC retention time reads 2.11

Noted for O=c1ccc2ccccc2o1 [Coumarin] : its LC retention time reads 6.42

Noted for CC(C)CC(NC(=O)C1CCCN1)C(=O)O (stereo not given) [Pro-Leu] : its LC retention time reads 4.4

Noted for O=c1[nH]cc(CO)c(=O)[nH]1 [5-HYDROXYMETHYLURACIL] : its LC retention time reads 0.82

Noted for NC(Cc1cc(I)c(Oc2ccc(O)cc2)c(I)c1)C(=O)O [3-5-DIIODO-L-THYRONINE] : its LC retention time reads 6.31

Noted for O=CNCC(=O)O [N-FORMYLGLYCINE] : its LC retention time reads 0.74

Noted for CC(=O)C1CCC2C3CC=C4CC(OS(=O)(=O)O)CCC4(C)C3CCC12C (stereo not given) [pregnenolone sulfate] : its LC retention time reads 8.05

Noted for NC(=O)c1ccc[n+](C2OC(COP(=O)(O)OP(=O)(O)OCC3OC(n4cnc5c(=O)[nH]cnc54)C(O)C3O)C(O)C2O)c1 (stereo not given) [NICOTINAMIDE HYPOXANTHINE DINUCLEOTIDE] : its LC retention time reads 0.82

Noted for OCC1OC(OC2C(CO)OC(OC3C(CO)OC(O)C(O)C3O)C(O)C2O)C(O)C(O)C1O (stereo not given) [Maltotriose] : its LC retention time reads 0.61

Noted for OC1COC(O)C(O)C1O (stereo not given) [XYLOSE] : its LC retention time reads 0.64

Noted for Cc1ncc(CO)c(C(=O)O)c1O [4-PYRIDOXATE] : its LC retention time reads 1.73

Noted for CN(C)c1ccc(N)cc1 [N-N-DIMETHYL-1-4-PHENYLENEDIAMINE] : its LC retention time reads 0.83
